Overview of reported Dmax across a group of compounds:
Biological target: SMARCA2 (Homo sapiens, UniProt P51531)
Sequence (P51531 whole entry): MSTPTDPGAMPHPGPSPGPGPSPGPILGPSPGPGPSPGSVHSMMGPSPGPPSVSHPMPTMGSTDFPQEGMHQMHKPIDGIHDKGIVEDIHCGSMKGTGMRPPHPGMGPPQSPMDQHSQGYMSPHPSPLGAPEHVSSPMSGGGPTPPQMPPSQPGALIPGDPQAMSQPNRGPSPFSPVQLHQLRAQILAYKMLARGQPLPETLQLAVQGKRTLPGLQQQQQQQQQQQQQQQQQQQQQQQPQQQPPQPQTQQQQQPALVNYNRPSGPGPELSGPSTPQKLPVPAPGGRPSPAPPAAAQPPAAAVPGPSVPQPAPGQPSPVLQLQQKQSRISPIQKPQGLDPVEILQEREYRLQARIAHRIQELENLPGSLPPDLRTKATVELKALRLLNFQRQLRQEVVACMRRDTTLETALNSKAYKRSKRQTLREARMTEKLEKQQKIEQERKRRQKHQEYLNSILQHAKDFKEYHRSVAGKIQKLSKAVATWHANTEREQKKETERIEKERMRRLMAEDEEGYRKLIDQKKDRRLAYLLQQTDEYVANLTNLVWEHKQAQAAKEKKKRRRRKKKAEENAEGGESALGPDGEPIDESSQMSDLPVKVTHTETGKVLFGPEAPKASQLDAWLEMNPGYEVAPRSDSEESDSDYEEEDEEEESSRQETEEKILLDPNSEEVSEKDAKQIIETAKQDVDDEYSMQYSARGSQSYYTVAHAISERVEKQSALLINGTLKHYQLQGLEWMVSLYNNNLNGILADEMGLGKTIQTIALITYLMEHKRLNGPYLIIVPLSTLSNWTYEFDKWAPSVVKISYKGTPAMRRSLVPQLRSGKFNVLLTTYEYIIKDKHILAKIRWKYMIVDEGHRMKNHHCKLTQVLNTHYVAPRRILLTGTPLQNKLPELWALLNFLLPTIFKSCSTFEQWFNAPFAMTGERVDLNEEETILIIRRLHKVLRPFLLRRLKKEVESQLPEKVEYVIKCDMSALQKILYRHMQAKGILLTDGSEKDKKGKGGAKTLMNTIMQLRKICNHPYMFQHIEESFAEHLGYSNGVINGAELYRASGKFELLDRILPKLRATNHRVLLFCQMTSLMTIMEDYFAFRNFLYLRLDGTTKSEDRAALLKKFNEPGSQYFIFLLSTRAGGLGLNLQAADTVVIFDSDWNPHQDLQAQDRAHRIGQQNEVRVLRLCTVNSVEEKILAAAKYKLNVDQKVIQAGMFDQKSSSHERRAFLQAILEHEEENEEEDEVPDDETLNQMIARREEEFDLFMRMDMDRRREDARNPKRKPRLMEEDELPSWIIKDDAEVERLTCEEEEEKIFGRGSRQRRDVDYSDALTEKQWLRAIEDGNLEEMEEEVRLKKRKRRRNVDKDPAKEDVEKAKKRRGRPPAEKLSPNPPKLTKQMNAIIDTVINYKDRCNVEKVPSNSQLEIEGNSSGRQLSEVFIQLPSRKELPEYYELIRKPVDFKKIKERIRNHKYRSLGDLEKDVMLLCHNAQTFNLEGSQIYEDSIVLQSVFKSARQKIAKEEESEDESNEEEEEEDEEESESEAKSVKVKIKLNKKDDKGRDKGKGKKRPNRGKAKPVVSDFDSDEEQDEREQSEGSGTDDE
Experiment: MSD SMARCA2 degradation in A549 cell line
Assay type: cell-based
Details: A549, A549 cells, 24 h
Experimental: Cells were seeded into 96-well plates (A549 cells: 2×10^4 cells/well/100 ul media) abd incubated overnight. The next day, 200 nl compound were added into the intermediate plate with Echo (Labcyte 550) from source plate containing a 3-fold serial dilution from top concentration of 1 mM. […] The MSD plate was washed three times with 150 ul/well of TBST and 150 ul/well of 2×MSD reading buffer diluted from 4× (MSD, R92TC-2) with water was added. Lastly, the MSD instrument was read. […]

Cc1ncsc1-c1ccc(CNC(=O)[C@@H]2C[C@@H](O)CN2C(=O)[C@@H](NC(=O)[C@H]2CC[C@@H](Cc3ccc(-c4cnc(N5C6CCC5CN(c5cc(-c7ccccc7O)nnc5N)C6)nc4)cc3)CC2)C(C)(C)C)cc1 [I-413]
70 to 90%
Cc1ncsc1-c1ccc(CNC(=O)[C@@H]2C[C@@H](O)CN2C(=O)[C@@H](NC(=O)[C@H]2CC[C@H](Cc3cnc(N4C5CCC4CN(c4cc(-c6ccccc6O)nnc4N)C5)nc3)CC2)C(C)(C)C)c(C(F)(F)F)c1 [I-422]
> 90%
Nc1nnc(-c2ccccc2O)cc1N1CC2CCC(C1)N2c1ncc(C2CCN(CCCCCCNC(=O)COc3ccc4c(c3)CCCN4C(=O)CCl)CC2)cn1 [I-529]
< 50%
Cc1ncsc1-c1ccc(CNC(=O)[C@@H]2C[C@@H](O)CN2C(=O)[C@@H](NC(=O)CCCN2CCC(c3cnc(N4C5CCC4CN(c4cc(-c6ccccc6O)nnc4N)C5)nc3)CC2)C(C)(C)C)cc1 [I-382]
< 50%

Sample Cc1ncsc1-c1ccc(CNC(=O)[C@@H]2C[C@@H](O)CN2C(=O)[C@@H](NC(=O)C2CC3(CCN(CCN4CCC(Cn5cc(-c6cc(-c7ccccc7O)nnc6N)cn5)CC4)CC3)C2)C(C)(C)C)cc1 [I-381] ; Dmax observed: 50 to 70%

* * *

Target: SMARCA4 (Homo sapiens)
Construct: SMARCA2 and SMARCA4 protein degradation in MV4-11 cells; endogenous in cells; host or cells: MV4-11
Sequence (P51532 whole entry): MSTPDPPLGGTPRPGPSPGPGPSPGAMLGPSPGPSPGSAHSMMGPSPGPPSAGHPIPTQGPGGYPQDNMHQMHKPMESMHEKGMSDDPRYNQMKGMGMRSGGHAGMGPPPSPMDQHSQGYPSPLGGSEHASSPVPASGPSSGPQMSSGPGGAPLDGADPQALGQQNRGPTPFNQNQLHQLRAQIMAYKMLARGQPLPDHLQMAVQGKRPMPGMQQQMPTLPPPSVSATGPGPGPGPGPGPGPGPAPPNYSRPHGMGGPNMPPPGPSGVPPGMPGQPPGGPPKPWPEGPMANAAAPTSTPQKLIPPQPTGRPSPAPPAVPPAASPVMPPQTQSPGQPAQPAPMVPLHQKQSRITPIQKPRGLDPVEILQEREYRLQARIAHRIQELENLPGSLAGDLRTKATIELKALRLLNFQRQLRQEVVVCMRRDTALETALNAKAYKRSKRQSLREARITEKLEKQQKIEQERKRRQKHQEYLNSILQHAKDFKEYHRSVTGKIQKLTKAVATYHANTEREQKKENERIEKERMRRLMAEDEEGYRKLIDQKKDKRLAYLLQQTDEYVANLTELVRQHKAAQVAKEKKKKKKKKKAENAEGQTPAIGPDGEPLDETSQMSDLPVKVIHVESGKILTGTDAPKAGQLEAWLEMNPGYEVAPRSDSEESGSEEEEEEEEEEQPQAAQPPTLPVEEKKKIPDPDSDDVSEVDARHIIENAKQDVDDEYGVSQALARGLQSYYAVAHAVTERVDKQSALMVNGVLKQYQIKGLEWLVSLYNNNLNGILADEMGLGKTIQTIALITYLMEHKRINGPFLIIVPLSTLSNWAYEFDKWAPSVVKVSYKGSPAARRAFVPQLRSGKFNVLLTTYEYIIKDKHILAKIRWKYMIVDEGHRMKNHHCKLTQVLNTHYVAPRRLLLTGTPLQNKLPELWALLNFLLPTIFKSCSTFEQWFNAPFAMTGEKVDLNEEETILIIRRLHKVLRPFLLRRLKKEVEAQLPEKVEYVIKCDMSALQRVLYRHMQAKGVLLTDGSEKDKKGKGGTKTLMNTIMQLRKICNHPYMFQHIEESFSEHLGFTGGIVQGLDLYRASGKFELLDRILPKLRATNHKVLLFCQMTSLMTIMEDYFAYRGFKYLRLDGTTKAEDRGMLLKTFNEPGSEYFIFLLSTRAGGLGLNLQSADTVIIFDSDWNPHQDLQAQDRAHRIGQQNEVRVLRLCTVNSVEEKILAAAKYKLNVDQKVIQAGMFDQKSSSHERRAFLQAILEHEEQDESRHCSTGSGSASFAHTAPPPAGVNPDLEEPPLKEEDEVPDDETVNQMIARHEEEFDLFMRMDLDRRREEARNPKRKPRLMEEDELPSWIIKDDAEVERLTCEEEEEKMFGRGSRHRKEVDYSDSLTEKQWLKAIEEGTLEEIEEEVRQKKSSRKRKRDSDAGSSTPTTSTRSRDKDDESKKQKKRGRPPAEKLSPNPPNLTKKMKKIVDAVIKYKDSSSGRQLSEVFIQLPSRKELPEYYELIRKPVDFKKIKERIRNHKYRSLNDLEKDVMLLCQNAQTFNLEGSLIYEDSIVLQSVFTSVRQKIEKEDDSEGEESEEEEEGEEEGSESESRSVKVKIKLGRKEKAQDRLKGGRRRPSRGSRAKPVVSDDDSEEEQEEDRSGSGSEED
Assay: SMARCA4 Western blot MV4-11 degradation
Format: cell-based
Conditions: MV4-11 cells, 24 h, read-out: SMARCA4 WB MV411 degradation 24 h: Average external-Abs DC50
parameter: DC50

Example entries begin here.
Cn1c(=O)n(C2CCC(=O)NC2=O)c2ccc(CCCCCCCc3nccc(N4C5CCC4CN(c4cc(-c6ccccc6O)nnc4N)C5)n3)cc21 (stereo not drawn)
> 1000 nM
Cc1ncsc1-c1ccc(CNC(=O)[C@@H]2C[C@@H](O)CN2C(=O)[C@@H](NC(=O)C2CCC(CCCCCN3CCC(Cn4cc(-c5cc(-c6ccccc6O)nnc5N)cn4)CC3)CC2)C(C)(C)C)cc1 (stereo partly drawn)
100 to 500 nM

Here's the next entry for you.
Sample Cc1ncsc1-c1ccc(CNC(=O)[C@@H]2C[C@@H](O)CN2C(=O)[C@@H](NC(=O)[C@H]2CC3(C2)C[C@H](c2cnc(N4C5CCC4CN(c4cc(-c6ccccc6O)nnc4N)C5)nc2)C3)C(C)(C)C)cc1 (stereo partly drawn) ; DC50 observed: < 100 nM
